Every entry's value here was drawn from patent US11192900B2.

- systemName: BRD4-2 (Homo sapiens (Human))
- experimentNotes: Bromodomain and Extraterminal Domain (BET) Binding Assay
- conditionDescription: Table 3; read-out: BRD4-2 IC50
pIC50: −log10 of the molar value.

molecularString	comparisonSign	pIC50
C=CS(=O)(=O)Nc1ccc(Oc2ccc(F)cc2F)c(-c2cnc(=O)n(C)c2)c1	=	5.84
C#CC(=O)Nc1ccc(Oc2c(C)cccc2C)c(-c2cn(C)c(=O)c3cc(C(=O)NCC)sc23)c1	=	7.96
C=CC(=O)Nc1ccc(Oc2c(F)cccc2F)c(-c2cn(C)c(=O)c3ccccc23)c1	=	7.11
C=CS(=O)(=O)Nc1ccc(Oc2ccc(F)cc2)c(-c2cn(C)c(=O)c3ccccc23)c1	=	7.85
C=CC(=O)Nc1ccc(Nc2c(C)cccc2C)c(-c2cn(C)c(=O)c3cc(C(=O)NCC)sc23)c1	=	7.37
C=CC(=O)Nc1ccc(N(C)c2ccc(F)cc2F)c(-c2cn(C)c(=O)c3sc(C(=O)NCC)cc23)c1	<	5.00
C=CC(=O)Nc1ccc(OC(C)C)c(-c2cc(NC)c(=O)n(C)c2)c1	=	6.11
C=CS(=O)(=O)Nc1ccc(Oc2ccc(F)cc2F)c(-c2c[nH]c(=O)c3ccccc23)c1	<	5.00
